Values were extracted from ChEMBL document CHEMBL4152208.

# measured_on: UniProt:Q99572
# Sequence (Q99572 whole entry): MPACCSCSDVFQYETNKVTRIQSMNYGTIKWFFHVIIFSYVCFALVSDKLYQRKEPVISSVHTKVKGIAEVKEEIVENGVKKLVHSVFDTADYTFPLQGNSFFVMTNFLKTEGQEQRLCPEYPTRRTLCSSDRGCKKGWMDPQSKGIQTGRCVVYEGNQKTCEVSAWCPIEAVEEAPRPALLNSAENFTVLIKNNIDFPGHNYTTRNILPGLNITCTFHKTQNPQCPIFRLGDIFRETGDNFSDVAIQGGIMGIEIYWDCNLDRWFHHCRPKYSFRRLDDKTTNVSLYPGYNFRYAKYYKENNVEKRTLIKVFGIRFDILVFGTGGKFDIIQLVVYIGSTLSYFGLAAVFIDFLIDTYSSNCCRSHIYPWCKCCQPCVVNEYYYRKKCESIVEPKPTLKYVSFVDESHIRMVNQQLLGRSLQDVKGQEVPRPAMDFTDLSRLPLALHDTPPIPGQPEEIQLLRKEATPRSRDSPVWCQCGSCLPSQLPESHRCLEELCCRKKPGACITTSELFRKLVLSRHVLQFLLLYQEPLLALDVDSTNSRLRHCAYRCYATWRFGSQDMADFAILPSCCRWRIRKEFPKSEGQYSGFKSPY
# test_summary: Antagonist activity at P2X7 in LPS/IFN gamma differentiated human THP-1 cells assessed as inhibition of BzATP-induced IL-1beta release preincubated for 30 mins followed by BzATP stimulation for 30 mins by ELISA
# Type: cell-based
Binary call on IC50 with cut-off 20 nM: strictly below means true, and equality or higher means false.

Known results for compounds:
O=C(CC12CC3CC(CC(C3)C1)C2)Nc1cccc2nc(-c3ccc([N+](=O)[O-])cc3)ccc12	false
O=C(CC12CC3CC(CC(C3)C1)C2)Nc1cccc2nc(-c3ccc(Cl)cc3)ccc12	false
O=C(CC12CC3CC(CC(C3)C1)C2)Nc1cccc2nc(-c3ccc(CO)cc3)ccc12	true
Nc1ccc(-c2ccc3c(NC(=O)CC45CC6CC(CC(C6)C4)C5)cccc3n2)cc1	true

Below 20 nM on IC50? Entry O=C(CC12CC3CC(CC(C3)C1)C2)Nc1cccc2nc(-c3ccccc3)ccc12 false

Below 20 nM on IC50? Entry COC(=O)c1ccc(-c2ccc3c(NC(=O)CC45CC6CC(CC(C6)C4)C5)cccc3n2)cc1 false

Below 20 nM on IC50? Entry O=C(CC12CC3CC(CC(C3)C1)C2)Nc1cccc2nc(-c3ccc(C(=O)O)cc3)ccc12 false

Below 20 nM on IC50? Entry COc1ccc(-c2ccc3c(NC(=O)CC45CC6CC(CC(C6)C4)C5)cccc3n2)cc1 false

Below 20 nM on IC50? Entry O=C(CC12CC3CC(CC(C3)C1)C2)Nc1cccc2nc(-c3ccc(O)cc3)ccc12 true

Below 20 nM on IC50? Entry O=C(CC12CC3CC(CC(C3)C1)C2)Nc1cccc2nc(Cl)ccc12 true

Below 20 nM on IC50? Entry O=C(CC1CCCCC1)Nc1cccc2nc(Cl)ccc12 false
